Here's a roundup of IC50 values tested on MAP4K4 (Homo sapiens, UniProt O95819), taken from various published works.
Sequence (O95819 whole entry): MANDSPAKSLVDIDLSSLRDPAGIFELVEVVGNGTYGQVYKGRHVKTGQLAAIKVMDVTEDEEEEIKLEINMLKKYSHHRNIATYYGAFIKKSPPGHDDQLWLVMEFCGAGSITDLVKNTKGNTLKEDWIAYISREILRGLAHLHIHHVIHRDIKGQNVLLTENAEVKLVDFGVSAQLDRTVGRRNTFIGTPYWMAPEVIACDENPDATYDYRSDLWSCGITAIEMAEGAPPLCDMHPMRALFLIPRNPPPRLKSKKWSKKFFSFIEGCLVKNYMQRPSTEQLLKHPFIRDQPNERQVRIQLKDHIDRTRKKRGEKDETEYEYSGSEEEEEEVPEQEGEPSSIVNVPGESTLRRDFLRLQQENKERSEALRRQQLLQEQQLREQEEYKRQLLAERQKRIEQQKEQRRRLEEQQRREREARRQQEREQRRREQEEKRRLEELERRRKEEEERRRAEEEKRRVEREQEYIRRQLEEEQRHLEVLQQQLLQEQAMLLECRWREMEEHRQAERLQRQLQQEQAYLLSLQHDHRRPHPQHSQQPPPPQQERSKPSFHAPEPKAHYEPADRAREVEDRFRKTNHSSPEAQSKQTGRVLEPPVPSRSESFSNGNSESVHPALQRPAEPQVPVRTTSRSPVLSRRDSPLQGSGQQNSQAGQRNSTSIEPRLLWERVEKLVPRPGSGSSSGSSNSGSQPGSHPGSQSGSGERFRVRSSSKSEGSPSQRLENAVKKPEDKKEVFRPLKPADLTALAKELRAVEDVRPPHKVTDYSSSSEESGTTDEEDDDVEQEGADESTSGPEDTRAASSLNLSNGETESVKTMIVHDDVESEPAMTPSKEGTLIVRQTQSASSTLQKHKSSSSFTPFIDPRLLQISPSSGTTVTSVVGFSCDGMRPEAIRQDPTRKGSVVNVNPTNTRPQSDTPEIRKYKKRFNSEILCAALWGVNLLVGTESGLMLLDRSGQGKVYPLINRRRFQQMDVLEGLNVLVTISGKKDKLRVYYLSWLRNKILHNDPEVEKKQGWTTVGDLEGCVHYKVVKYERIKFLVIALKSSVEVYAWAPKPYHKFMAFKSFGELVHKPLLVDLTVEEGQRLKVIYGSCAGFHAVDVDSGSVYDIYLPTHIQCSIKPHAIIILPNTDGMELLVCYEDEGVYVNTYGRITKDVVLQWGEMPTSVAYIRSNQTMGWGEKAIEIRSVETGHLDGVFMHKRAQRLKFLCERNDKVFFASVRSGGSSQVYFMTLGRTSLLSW

Completed entries (count: 5):
1. CCCCNC(=O)Nc1ccc(F)c(C(=O)c2c[nH]c3ncc(-c4cccnc4)cc23)c1F = ≤ 10000 nM
2. Cc1cnc2[nH]cc(C(=O)c3c(F)ccc(NS(=O)(=O)c4ccccc4F)c3F)c2c1 = ≤ 10000 nM
3. Cc1cnc2[nH]cc(C(=O)c3c(F)ccc(NS(=O)(=O)C(C)C)c3F)c2c1 = ≤ 10000 nM
4. O=C(Nc1ccncn1)c1ccc(-c2c(-c3ccc(F)cc3)ncn2C2COCC2(F)F)o1 (stereo not shown) = 50.5 nM
5. N#Cc1cnc2[nH]cc(C(=O)c3c(F)ccc(NS(=O)(=O)c4ccccc4F)c3F)c2c1 = ≤ 10000 nM

Query: Look up IC50 with MAP4K4 (Homo sapiens, UniProt O95819) for this compound: COc1cncc(CNc2nc(Cl)c(Cc3c[nH]c4ncccc34)s2)c1
Response: < 1000 nM

Query: O=C(O)/C=C/c1cccc(-c2cnc3[nH]cc(C(=O)c4cccc(OC(F)F)c4)c3c2)c1 ?
Response: ≤ 10000 nM

Query: Further, for Cc1c(NS(C)(=O)=O)cccc1C(=O)c1c[nH]c2ncc(-c3ccccc3)cc12 ?
Response: ≤ 10000 nM

Query: What would you report for CC(=O)N1CCN(c2ccc(NC(=O)c3c[nH]c(-c4c(-c5ccc(F)cc5)ncn4CC(F)(F)F)n3)cc2)CC1 ?
Response: 12 to 120 nM

###

pIC50: −log10 of the molar value.
Here is a set of molecules with reported pIC50 for MAP4K4 (Homo sapiens), compiled from the literature.

Recorded results for 5 molecules are shown here.
1. Cc1[nH]c2ncccc2c1-c1cccc(F)c1 = ≥ 5.00
2. O=C(Nc1ccccc1F)c1ccc(-c2c(-c3ccc(F)cc3)ncn2C2CCOC2)o1 (stereo not drawn) = 6.85
3. CCCS(=O)(=O)Nc1ccc(F)c(C(=O)c2c[nH]c3ncc(-c4ccc(OCCN5CCCC5)nc4)cc23)c1F = ≥ 5.00
4. OCCOc1ccc(F)c(Cc2c[nH]c3ncc(-c4cccnc4)cc23)c1F = ≥ 5.00
5. CC(=O)Nc1ccc(NC(=O)c2ccc(-c3c(-c4ccc(F)cc4)ncn3C3CCCC3)o2)cc1 = 7.51

Kindly review the next molecule as well.
Query: Entry under review: CCCS(=O)(=O)Nc1ccc(F)c(C(=O)c2c[nH]c3ncc(-c4cccnc4)cc23)c1F . Reported pIC50?
Response: ≥ 5.00

###

A compilation of pIC50 values for MAP4K4 (Homo sapiens, UniProt O95819) from the published literature.
pIC50: −log10 of the molar value.

1. O=C(Nc1ccccc1F)c1ccc(-c2c(-c3ccc(F)cc3)ncn2CC2CCCO2)o1 (centres unmarked) = 6.65
2. O=C(c1cccc(NS(=O)(=O)c2cccnc2)c1)c1c[nH]c2ncc(Cl)cc12 = ≥ 5.00
3. O=C(c1cc(Cl)cc(Cl)c1)c1c[nH]c2ncc(-c3cccnc3)cc12 = ≥ 5.00

Query: Entry COc1cnc2[nH]cc(C(=O)c3c(F)ccc(NS(=O)(=O)CC(F)(F)F)c3F)c2c1 has what pIC50?
Response: ≥ 5.00

Query: COc1cnc2[nH]cc(C(=O)c3c(F)ccc(NS(C)(=O)=O)c3F)c2c1 , same question.
Response: ≥ 5.00

Query: And what about the compound O=C(c1c(F)ccc(NS(=O)(=O)c2ncn[nH]2)c1F)c1c[nH]c2ncc(Cl)cc12 ?
Response: ≥ 5.00

Query: O=C(Nc1ccccc1F)c1ccc(-c2c(-c3ccc(F)cc3)ncn2C2CCNC2)o1 (centres unmarked) ?
Response: 5.92

Query: Try the compound COc1ccc(NC(=O)c2ccc(-c3c(-c4ccc(F)cc4)ncn3C3CCCC3)o2)cc1Cl
Response: 6.78

Query: Another compound to check: CCCS(=O)(=O)Nc1ccc(F)c(C(=O)c2c[nH]c3ncc(-c4ccc(OCCO)nc4)cc23)c1F
Response: ≥ 5.00

Query: Entry to check: O=C(c1c(F)ccc(NS(=O)(=O)c2ccccn2)c1F)c1c[nH]c2ncc(Cl)cc12
Response: ≥ 5.00

Query: And for Cn1cc(-c2cnc3[nH]cc(C(=O)c4cc(NS(=O)(=O)c5cccc(F)c5)ccc4F)c3c2)cn1 ?
Response: ≥ 5.00

###

Collected IC50 for MAP4K4 (Homo sapiens, UniProt O95819) across several studies; compounds listed below.

# annotated cases, reported IC50 shown
1) CS(=O)(=O)Nc1cccc(-c2cnc3[nH]cc(C(=O)c4cc(NS(=O)(=O)C5CCCC5)ccc4F)c3c2)c1 = ≤ 10000 nM
2) Cc1cccc(NC(=O)c2ccc(-c3c(-c4ccc(F)cc4)ncn3C3CCCCC3)o2)c1C = > 1000 nM
3) COc1ccc(NC(=O)c2ccc(-c3c(-c4ccc(C)cc4)ncn3C3CCCCC3)o2)cc1 = > 1000 nM
4) COC(=O)c1ccccc1NC(=O)c1ccc(-c2c(-c3ccc(F)cc3)ncn2C2CCCC2)o1 = 11.5 nM
5) O=C(c1c(F)ccc(NS(=O)(=O)c2ccc(F)cc2)c1F)c1c[nH]c2nccc(Cl)c12 = ≤ 10000 nM
6) Cc1cc(NC(=O)c2ccc(-c3c(-c4ccc(F)cc4)ncn3C3COC3)o2)c(F)cn1 = 194 nM
7) Cc1cc(NC(=O)c2ccc(-c3c(-c4ccc(F)cc4)ncn3C3COCC3F)o2)c(F)cn1 (stereo not shown) = 95.4 nM
8) CCCS(=O)(=O)Nc1ccc(F)c(C(=O)c2c[nH]c3ncc(OC)cc23)c1F = ≤ 10000 nM

Query: Write down the reported IC50 of CN(C)c1cccc(Nc2ccc3cc[nH]c3n2)c1 , test system: MAP4K4 (Homo sapiens, UniProt O95819).
Response: ≤ 10000 nM

Query: Another compound to look at: Fc1cncc(CNc2ccc(Cc3c[nH]c4ncc(Cl)cc34)cn2)c1
Response: < 1000 nM

Query: Now the same for O=C(c1c(F)ccc(NS(=O)(=O)CC(F)(F)F)c1F)c1c[nH]c2nccc(Cl)c12
Response: ≤ 10000 nM

Query: What do you have for O=C(c1cccc(NS(=O)(=O)C2CCCCC2)c1)c1c[nH]c2ncc(F)cc12 ?
Response: ≤ 10000 nM

Query: Now consider Cc1cnc2[nH]cc(C(=O)c3c(F)ccc(NS(=O)(=O)c4ccc(F)cc4F)c3F)c2c1 .
Response: ≤ 10000 nM

Query: Repeat for the following compound: O=C(Nc1ccccc1C(F)(F)F)c1ccc(-c2c(-c3ccc(F)cc3)ncn2C2CCCC2)o1
Response: 30.4 nM

Query: Moving on to the next compound: Cc1cnc2[nH]cc(C(=O)c3c(F)ccc(NS(=O)(=O)c4cccc(F)c4)c3F)c2c1
Response: ≤ 10000 nM

Query: Further, for O=C(Nc1ccccc1F)c1ccc(-c2c(-c3cncnc3)ncn2C2CCCC2)o1 ?
Response: > 10000 nM
